- target.or.test.system: human renal renin (Homo sapiens, UniProt P00797)
- Construct: human renal renin, free from acid proteolytic activity; from tissue
- Sequence (P00797 67-406): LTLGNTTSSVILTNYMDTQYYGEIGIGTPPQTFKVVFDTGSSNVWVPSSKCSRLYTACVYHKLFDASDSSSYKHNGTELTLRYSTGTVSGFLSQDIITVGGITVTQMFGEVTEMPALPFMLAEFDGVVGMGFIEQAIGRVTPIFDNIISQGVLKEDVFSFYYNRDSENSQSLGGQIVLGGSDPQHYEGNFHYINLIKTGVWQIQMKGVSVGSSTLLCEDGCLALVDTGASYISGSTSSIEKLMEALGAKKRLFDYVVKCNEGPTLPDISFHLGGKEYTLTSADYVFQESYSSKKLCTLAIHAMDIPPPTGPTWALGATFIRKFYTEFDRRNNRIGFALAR
- assay.notes: Inhibition of human renal renin in vitro; angiotensin I formed measured by radioimmunoassay
- Format: biochemical
pIC50: −log10 of the molar value. Structures can show the parent of a compound that is named as a salt.
observable: pIC50

compound=CC(C)C[C@@H](O)[C@H](O)[C@H](CC1CCCCC1)NC(=O)[C@H](Cc1c[nH]cn1)NC(=O)[C@H](Cc1ccccc1)NC(=O)OC(C)(C)C observable=pIC50 data_value=7.46
compound="CC(C)C[C@H](O)[C@H](O)[C@H](CC1CCCCC1)NC(=O)[C@H](Cc1c[nH]cn1)NC(=O)[C@H](Cc1ccccc1)NC(=O)CCN [Example 62, Diacetic Acid Salt]" observable=pIC50 data_value=8.70
compound=CC(C)C[C@H](O)[C@H](O)[C@H](CC1CCCCC1)NC(=O)[C@H](Cc1c[nH]cn1)NC(=O)[C@H](Cc1ccccc1)NC(=O)CN(C)C(=O)OCc1ccccc1 observable=pIC50 data_value=9.35
compound=CC(C)C[C@H](O)[C@H](O)[C@H](CC1CCCCC1)NC(=O)[C@H](Cc1c[nH]cn1)NC(=O)C(Cc1ccccc1)Cc1ccccc1 observable=pIC50 data_value=8.15
compound=CC(=O)N(C)[C@@H](Cc1ccccc1)C(=O)N[C@@H](Cc1c[nH]cn1)C(=O)N[C@@H](CC1CCCCC1)[C@@H](O)[C@@H](O)CC(C)C observable=pIC50 data_value=8.00
compound=CC(C)C[C@H](O)[C@H](O)[C@H](CC1CCCCC1)NC(=O)[C@H](Cc1c[nH]cn1)NC(=O)[C@H](Cc1ccccc1)NC(=O)CO observable=pIC50 data_value=9.00

----------
- target.or.test.system: human renal renin (Homo sapiens, UniProt P00797)
- Construct: human renal renin, free from acid proteolytic activity; from tissue
- assay.notes: Inhibition of human renal renin in vitro; angiotensin I formed measured by radioimmunoassay
- Type: biochemical
- condition.context: human renal renin free from acid proteolytic activity, renin substrate human angiotensinogen, 37° C., pH 6.0
pIC50: −log10 of the molar value.
observable: pIC50

smiles_input=CC(C)C[C@H](O)[C@H](O)[C@H](CC1CCCCC1)NC(=O)[C@H](Cc1ccccc1)NC(=O)[C@H](Cc1ccccc1)NC(=O)OC(C)(C)C data_value=8.82
smiles_input=CC(C)(C)OC(=O)N[C@@H](Cc1ccccc1)C(=O)N[C@@H](Cc1c[nH]cn1)C(=O)N[C@@H](CC1CCCCC1)[C@@H](O)CO data_value=7.30
smiles_input=CC(C)C[C@H](O)[C@@H](O)[C@H](CC1CCCCC1)NC(=O)[C@H](Cc1c[nH]cn1)NC(=O)[C@H](Cc1ccccc1)NC(=O)OC(C)(C)C data_value=7.15
smiles_input=CCOC(=O)N[C@@H](Cc1ccc(OC)cc1)C(=O)N[C@@H](Cc1c[nH]cn1)C(=O)N[C@@H](CC1CCCCC1)[C@@H](O)[C@@H](O)CC(C)C data_value=8.82
smiles_input=CC(C)C[C@H](O)[C@H](O)[C@H](CC1CCCCC1)NC(=O)[C@H](Cc1c[nH]cn1)NC(=O)[C@H](Cc1ccccc1)NC(=O)OC(C)(C)C data_value=8.82
smiles_input=CC(C)C[C@H](O)[C@H](O)[C@H](CC1CCCCC1)NC(=O)[C@H](C)NC(=O)[C@H](Cc1ccccc1)NC(=O)OC(C)(C)C data_value=8.30

----------
- target.or.test.system: human renal renin (Homo sapiens, UniProt P00797)
- Construct: human renal renin, free from acid proteolytic activity; from tissue
- assay.notes: Inhibition of human renal renin in vitro; angiotensin I formed measured by radioimmunoassay
- Type: biochemical
- condition.context: human renal renin free from acid proteolytic activity, renin substrate human angiotensinogen, 37° C., pH 6.0
Counter-ions that a name gives are not always drawn.
observable: IC50 (nM)

molecule=CC(C)C[C@H](NC(=O)OC(C)(C)C)C(=O)N[C@@H](Cc1c[nH]cn1)C(=O)N[C@@H](CC1CCCCC1)[C@@H](O)[C@@H](O)CC(C)C target_or_test_system="human renal renin (Homo sapiens, UniProt P00797)" data_value=1
molecule="CC(C)C[C@H](O)[C@H](O)[C@H](CC1CCCCC1)NC(=O)[C@H](Cc1c[nH]cn1)NC(=O)[C@H](Cc1ccccc1)NC(=O)N1CCNCC1 [Example 124, Bis-Acetic Acid Salt]" target_or_test_system="human renal renin (Homo sapiens, UniProt P00797)" data_value=0.65
molecule=CC(C)C[C@@H](O)[C@@H](O)[C@H](CC1CCCCC1)NC(=O)[C@H](Cc1c[nH]cn1)NC(=O)[C@H](Cc1ccccc1)NC(=O)OC(C)(C)C target_or_test_system="human renal renin (Homo sapiens, UniProt P00797)" data_value=95
molecule=C[C@H](O)[C@H](O)[C@H](CC1CCCCC1)NC(=O)[C@H](Cc1c[nH]cn1)NC(=O)[C@H](Cc1ccccc1)NC(=O)OC(C)(C)C target_or_test_system="human renal renin (Homo sapiens, UniProt P00797)" data_value=2
molecule=CC(C)[C@H](O)[C@H](O)[C@H](CC1CCCCC1)NC(=O)[C@H](Cc1c[nH]cn1)NC(=O)[C@H](Cc1ccccc1)NC(=O)OC(C)(C)C target_or_test_system="human renal renin (Homo sapiens, UniProt P00797)" data_value=1.5

----------
- target.or.test.system: human renal renin (Homo sapiens, UniProt P00797)
- Construct: human renal renin, free from acid proteolytic activity; from tissue
- assay.notes: Inhibition of human renal renin in vitro; angiotensin I formed measured by radioimmunoassay
- Assay type: biochemical
Each entry below lists one item and its recorded IC50 value.
observable: IC50 (nM)

molecule=COc1ccc(C[C@H](N)C(=O)N[C@@H](CC(C)C)C(=O)N[C@@H](CC2CCCCC2)[C@@H](O)[C@@H](O)CC(C)C)cc1 observable=IC50 units_label=nM data_value=2
molecule=CC(C)C[C@H](NC(=O)[C@H](Cc1ccccc1)NC(=O)CCCC(=O)O)C(=O)N[C@@H](CC1CCCCC1)[C@@H](O)[C@@H](O)CC(C)C observable=IC50 units_label=nM data_value=0.59
molecule="CC(C)C[C@H](O)[C@H](O)[C@H](CC1CCCCC1)NC(=O)[C@H](Cc1c[nH]cn1)NC(=O)C(CC(=O)N1CCOCC1)Cc1ccccc1 (single isomer, unassigned)" observable=IC50 units_label=nM data_value=0.3
molecule=CC(C)C[C@H](NC(=O)[C@H](Cc1ccccc1)NC(=O)Cc1c[nH]cn1)C(=O)N[C@@H](CC1CCCCC1)[C@@H](O)[C@@H](O)CC(C)C observable=IC50 units_label=nM data_value=0.6
molecule=CC(C)C[C@H](O)[C@H](O)[C@H](CC1CCCCC1)NC(=O)[C@H](Cc1c[nH]cn1)NC(=O)CCc1ccccc1 observable=IC50 units_label=nM data_value=80

The values you see were collected from patent US5032577A.
